Test: Chromatographic LogD7.4
Format: physicochemical
Settings: reversed-phase HPLC, NUCLEODUR C18 Pyramid column; pH 7.4, HPLC-MS based; read-out: Chrom. LogD7.4
Method: The next step was an in vitro ADMET profiling of the best seven compounds so far: 9, 11, 14, 19, 20, 21, and 27. […] LogD7.4 was analyzed using an HPLC−MS based method. The retention time of 12 compounds with known LogD7.4 was determined and plotted toward their LogD7.4. […]
Metric: chromatographic logD
Note: the reply should be a number with no unit written.

COc1ncc(C)cc1-c1cc(C)c(-n2cc(-c3ccc(C(=O)O)cc3)nn2)cn1: 0.42
COc1ccc(-c2cc(C)c(-n3cc(-c4ccc(C(=O)O)cc4)nn3)cn2)c(Cl)c1: 0.75

**Q:** Entry `COc1ccc(-c2cc(C)c(-n3cc(-c4ccc(C(=O)O)cc4)nn3)cn2)cc1` has what chromatographic logD?
**A:** 0.46

====

// reported pKd for each item listed
Target: oligomerization-deficient mutant of a LANA C-terminal protein fragment (aa 1008–1146) (Human herpesvirus 8 (Kaposi's sarcoma-associated herpesvirus), UniProt Q76SB0)
Sequence (Q76SB0 1008-1146): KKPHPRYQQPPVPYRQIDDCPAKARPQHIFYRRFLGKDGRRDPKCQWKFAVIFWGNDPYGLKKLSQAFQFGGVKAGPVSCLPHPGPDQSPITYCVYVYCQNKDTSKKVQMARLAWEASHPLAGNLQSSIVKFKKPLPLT
Assay: Microscale thermophoresis (MST) binding assay
Conditions: read-out: KD value (MST); LANA aa 1008–1146 mutant; means of at least three replicates
Conceptually, pKd converts a concentration in mol/L into minus its log10.

Example cases with answers are listed next.
COc1ncc(C)cc1-c1cc(C)c(-n2cc(-c3ccc(C(=O)O)cc3)nn2)cn1: 4.73
COc1ccc(-c2cc(C)c(-n3cc(-c4ccc(C(=O)O)cc4)nn3)cn2)c(Cl)c1: 4.85
Cc1cc(-c2ccccc2O)ncc1-n1cc(-c2ccc(C(=O)O)cc2)nn1: 4.73
Cc1cc(-c2ccncc2)ncc1-n1cc(-c2ccc(C(=O)O)cc2)nn1: 4.24
Cc1cc(-c2cccnc2)ncc1-n1cc(-c2ccc(C(=O)O)cc2)nn1: 4.09

**Q:** Entry `COc1cncc(-c2cc(C)c(-n3cc(-c4ccc(C(=O)O)cc4)nn3)cn2)c1` has what pKd?
**A:** 4.96

**Q:** Entry `Cc1cc(-c2cccc(OCc3ccccc3Cl)c2)ncc1-n1cc(-c2ccc(C(=O)O)cc2)nn1` has what pKd?
**A:** 3.80

**Q:** Entry `Cc1cc(-c2ccccc2)ncc1-n1cc(-c2ccc(C(=O)O)cc2)nn1` has what pKd?
**A:** 5.12

**Q:** Entry `Cc1cc(-c2ccc(Cl)cc2)ncc1-n1cc(-c2ccc(C(=O)O)cc2)nn1` has what pKd?
**A:** 4.42

**Q:** Entry `Cc1cc(-c2ccc(C(=O)O)cc2)ncc1-n1cc(-c2ccc(C(=O)O)cc2)nn1` has what pKd?
**A:** 4.94

**Q:** Entry `Cc1cc(-c2cncnc2)ncc1-n1cc(-c2ccc(C(=O)O)cc2)nn1` has what pKd?
**A:** 4.88

**Q:** Entry `COc1cccc(-c2cc(C)c(-n3cc(-c4ccc(C(=O)O)cc4)nn3)cn2)c1` has what pKd?
**A:** 5.02

**Q:** Entry `Cc1cc(-c2cccc(Oc3ccccc3)c2)ncc1-n1cc(-c2ccc(C(=O)O)cc2)nn1` has what pKd?
**A:** 4.15

**Q:** Entry `CNC(=O)c1ccc(-c2cc(C)c(-n3cc(-c4ccc(C(=O)O)cc4)nn3)cn2)cc1` has what pKd?
**A:** 4.51

**Q:** Entry `Cc1cc(-c2cccc(O)c2)ncc1-n1cc(-c2ccc(C(=O)O)cc2)nn1` has what pKd?
**A:** 4.58

**Q:** Entry `COc1cccc(COc2cccc(-c3cc(C)c(-n4cc(-c5ccc(C(=O)O)cc5)nn4)cn3)c2)c1` has what pKd?
**A:** 4.50

**Q:** Entry `Cc1cc(-c2ccc(O)nc2)ncc1-n1cc(-c2ccc(C(=O)O)cc2)nn1` has what pKd?
**A:** 4.86

====

Assay: Chromatographic LogD7.4
Type: physicochemical
Conditions: reversed-phase HPLC, NUCLEODUR C18 Pyramid column; pH 7.4, HPLC-MS based; read-out: Chrom. LogD7.4
Protocol: The next step was an in vitro ADMET profiling of the best seven compounds so far: 9, 11, 14, 19, 20, 21, and 27. […] LogD7.4 was analyzed using an HPLC−MS based method. The retention time of 12 compounds with known LogD7.4 was determined and plotted toward their LogD7.4. […]
Metric: chromatographic logD
Note: the reply should be a number with no unit written.

Cc1cc(-c2ccccc2Cl)ncc1-n1cc(-c2ccc(C(=O)O)cc2)nn1: 0.67
Cc1cc(-c2ccccc2O)ncc1-n1cc(-c2ccc(C(=O)O)cc2)nn1: 0.62
Cc1cc(-c2ccc(C(=O)O)cc2)ncc1-n1cc(-c2ccc(C(=O)O)cc2)nn1: -1.92

// moving on: another record for chromatographic logD
**Q:** Entry `COc1cncc(-c2cc(C)c(-n3cc(-c4ccc(C(=O)O)cc4)nn3)cn2)c1` has what chromatographic logD?
**A:** -0.36

====

// reported Papp A→B at 5 h, 10 µM for each item listed
assay: Caco-2 cell permeability; type: in vitro ADME; settings: human, pH 7.4, Caco-2 monolayer, apical to basolateral
Note: unit ×10⁻⁶ cm/s is implicit; provide only the numeric part.

Example cases with answers are listed next.
Cc1cc(-c2ccccc2Cl)ncc1-n1cc(-c2ccc(C(=O)O)cc2)nn1 [Compound 14]: 14.2
COc1ccc(-c2cc(C)c(-n3cc(-c4ccc(C(=O)O)cc4)nn3)cn2)cc1 [Compound 19]: 16.5

**Q:** Entry Cc1cc(-c2ccccc2O)ncc1-n1cc(-c2ccc(C(=O)O)cc2)nn1 [Compound 21] has what Papp A→B at 5 h, 10 µM?
**A:** 8.8

**Q:** Entry Cc1cc(-c2ccc(C(=O)O)cc2)ncc1-n1cc(-c2ccc(C(=O)O)cc2)nn1 [Compound 27] has what Papp A→B at 5 h, 10 µM?
**A:** 0.5

**Q:** Entry COc1ccc(-c2cc(C)c(-n3cc(-c4ccc(C(=O)O)cc4)nn3)cn2)c(Cl)c1 [Compound 20] has what Papp A→B at 5 h, 10 µM?
**A:** 10.3

**Q:** Entry COc1ncc(C)cc1-c1cc(C)c(-n2cc(-c3ccc(C(=O)O)cc3)nn2)cn1 [Compound 11] has what Papp A→B at 5 h, 10 µM?
**A:** 9.6

**Q:** Entry COc1cncc(-c2cc(C)c(-n3cc(-c4ccc(C(=O)O)cc4)nn3)cn2)c1 [Compound 9] has what Papp A→B at 5 h, 10 µM?
**A:** 2

====

Target: LANA–DNA interaction (oligomerization-deficient LANA DBD aa 1008–1146 mutant / LBS1) (Human herpesvirus 8 (Kaposi's sarcoma-associated herpesvirus), UniProt Q76SB0)
Assay: Electrophoretic mobility shift assay (EMSA), LANA DBD mutant with LBS1 oligonucleotide
Format: biochemical, Kaposi's sarcoma-associated herpesvirus (KSHV)
Conditions: compound at 250 μM; LBS1 oligonucleotide; LANA aa 1008–1146 mutant
Source text: In these assays, an oligomerization-deficient mutant of a LANA C-terminal protein fragment (aa 1008–1146) and an oligonucleotide representing LANA-binding site (LBS) 1 were used, which are convenient to use and handle for the described biophysical methods, while maintaining the essential DNA-binding interface.[25] Equation y = A2 + (A1-A2)/(1 + (x/x0)^p) […] dark. […] Images of the gels were acquired and analysed with the Odyssey (Licor) using the Image Studio software. […]
Metric: Inhibition (EMSA, LBS1) @250 μM (%)
Note: unit % is implicit; provide only the numeric part.

COc1cncc(-c2cc(C)c(-n3cc(-c4ccc(C(=O)O)cc4)nn3)cn2)c1: 97

// moving on: another record for Inhibition (EMSA, LBS1) @250 μM
**Q:** Entry `COc1ccc(-c2cc(C)c(-n3cc(-c4ccc(C(=O)O)cc4)nn3)cn2)cc1` has what Inhibition (EMSA, LBS1) @250 μM?
**A:** 69

====

molecular target: oligomerization-deficient mutant of a LANA C-terminal protein fragment (aa 1008–1146) (Human herpesvirus 8 (Kaposi's sarcoma-associated herpesvirus)); experiment: Microscale thermophoresis (MST) binding assay; details: read-out: KD value (MST); LANA aa 1008–1146 mutant; means of at least three replicates
Metric: pKd
Conceptually, pKd converts a concentration in mol/L into minus its log10.

Example cases with answers are listed next.
Cc1cc(-c2cncc(O)c2)ncc1-n1cc(-c2ccc(C(=O)O)cc2)nn1: 4.32
COc1ccccc1-c1cc(C)c(-n2cc(-c3ccc(C(=O)O)cc3)nn2)cn1: 4.74
COc1ccccc1COc1cccc(-c2cc(C)c(-n3cc(-c4ccc(C(=O)O)cc4)nn3)cn2)c1: 4.51
Cc1cc(-c2cccc(Cl)c2)ncc1-n1cc(-c2ccc(C(=O)O)cc2)nn1: 4.66
COc1ccc(COc2ccccc2-c2cc(C)c(-n3cc(-c4ccc(C(=O)O)cc4)nn3)cn2)cc1: 4.34

**Q:** Entry `COc1ccc(COc2cccc(-c3cc(C)c(-n4cc(-c5ccc(C(=O)O)cc5)nn4)cn3)c2)cc1` has what pKd?
**A:** 5.28

**Q:** Entry `COc1ccc(-c2cc(C)c(-n3cc(-c4ccc(C(=O)O)cc4)nn3)cn2)cc1` has what pKd?
**A:** 5.27

**Q:** Entry `Cc1cc(-c2cccc(C(=O)O)c2)ncc1-n1cc(-c2ccc(C(=O)O)cc2)nn1` has what pKd?
**A:** 4.92

**Q:** Entry `COc1ccc(-c2cc(C)c(-n3cc(-c4ccc(C(=O)O)cc4)nn3)cn2)cn1` has what pKd?
**A:** 5.04

**Q:** Entry `Cc1cc(-c2ccc(O)cc2)ncc1-n1cc(-c2ccc(C(=O)O)cc2)nn1` has what pKd?
**A:** 4.51

**Q:** Entry `Cc1cc(-c2cccc(OCc3ccccc3)c2)ncc1-n1cc(-c2ccc(C(=O)O)cc2)nn1` has what pKd?
**A:** 4.07

**Q:** Entry `CNC(=O)c1cccc(-c2cc(C)c(-n3cc(-c4ccc(C(=O)O)cc4)nn3)cn2)c1` has what pKd?
**A:** 5.37

**Q:** Entry `COc1ccc(COc2ccc(-c3cc(C)c(-n4cc(-c5ccc(C(=O)O)cc5)nn4)cn3)cc2)cc1` has what pKd?
**A:** 4.59

**Q:** Entry `Cc1cc(-c2cnc3ccccc3c2)ncc1-n1cc(-c2ccc(C(=O)O)cc2)nn1` has what pKd?
**A:** 4.51

**Q:** Entry `Cc1cc(-c2ccccc2Cl)ncc1-n1cc(-c2ccc(C(=O)O)cc2)nn1` has what pKd?
**A:** 5.38

**Q:** Entry `COc1cc(COc2cccc(-c3cc(C)c(-n4cc(-c5ccc(C(=O)O)cc5)nn4)cn3)c2)cc(OC)c1` has what pKd?
**A:** 4.01
